// provenance: the supplement of paper PMC10567573

B1: ZNF207 (parent)
chain: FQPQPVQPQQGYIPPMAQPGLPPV

- Variants of: B1
- TEST_SUMMARY: protein stability index of a GFP-peptide fusion (GPS, HEK-293T) (PSI 1-6); higher = more stable;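 also: lentivirally expressed fusions sorted by FACS into six bins by GFP to DsRed ratio, PSI derived from sequencing read proportions per bin multiplied by bin number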
- EXPERIMENTAL_PARAMETERS: c terminus: a fixed tail appended
Item-by-item account of protein stability index
In your answer, state the number alone without any accompanying words.

>>> numeric_result("Q10A")
2.84
>>> numeric_result("P8T")
2.91
>>> numeric_result("V24Q")
3.33
>>> numeric_result("M16G")
3.49
>>> numeric_result("Q7V")
3.63

Reported protein stability index of P5Q : 2.99

The value of protein stability index measured for the variant Q9C turned out to be 2.77

The variant listed as L21R shows protein stability index equal to 3.38

Form: variant = I13W ; protein stability index = 2.56

Entry under test: P22A . Its protein stability index was 3.37

// P14R : protein stability index value = 2.81
